Biological target: wild-type Androgen Receptor (AR-wt) (Homo sapiens (Human), UniProt P10275)
Sequence (P10275 whole entry): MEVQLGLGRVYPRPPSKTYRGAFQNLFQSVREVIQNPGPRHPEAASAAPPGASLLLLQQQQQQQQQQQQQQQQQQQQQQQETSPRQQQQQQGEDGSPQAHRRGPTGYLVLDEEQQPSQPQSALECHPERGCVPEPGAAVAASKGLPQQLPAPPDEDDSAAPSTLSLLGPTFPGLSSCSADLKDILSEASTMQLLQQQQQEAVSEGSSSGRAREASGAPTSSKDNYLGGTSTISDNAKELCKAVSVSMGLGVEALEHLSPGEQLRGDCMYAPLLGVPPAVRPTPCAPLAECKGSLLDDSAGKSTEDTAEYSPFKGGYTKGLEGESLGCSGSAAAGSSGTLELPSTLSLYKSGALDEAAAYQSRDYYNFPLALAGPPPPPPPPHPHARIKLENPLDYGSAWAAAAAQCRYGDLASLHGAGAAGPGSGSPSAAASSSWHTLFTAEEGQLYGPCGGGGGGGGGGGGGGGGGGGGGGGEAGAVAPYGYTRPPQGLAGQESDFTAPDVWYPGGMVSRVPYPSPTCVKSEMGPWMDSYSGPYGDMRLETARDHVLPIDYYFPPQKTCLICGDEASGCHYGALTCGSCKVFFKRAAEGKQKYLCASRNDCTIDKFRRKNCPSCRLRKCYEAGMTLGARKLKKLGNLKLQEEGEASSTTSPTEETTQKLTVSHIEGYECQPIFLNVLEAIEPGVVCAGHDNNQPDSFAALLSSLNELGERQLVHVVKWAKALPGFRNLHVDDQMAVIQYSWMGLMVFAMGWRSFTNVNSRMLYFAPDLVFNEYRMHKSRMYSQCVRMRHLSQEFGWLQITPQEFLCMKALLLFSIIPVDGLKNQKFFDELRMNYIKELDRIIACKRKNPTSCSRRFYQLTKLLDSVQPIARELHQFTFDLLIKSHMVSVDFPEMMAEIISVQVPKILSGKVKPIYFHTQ
Test: LNCaP-AR-wt AG reporter assay (agonist mode)
Type: cell-based
Conditions: maximum % stimulation (agonist response) over the tested concentration range; read-out: LNCaP-AR-wt AG MAX % Stim
outcomeMeasure: Emax (%)
Only the number, expressed in %, is required.

[in] Record request: Emax value, item N#CCN1CCC(Oc2ccc(N3C(=S)N(c4cnc(C#N)c(Cl)c4)C(=O)C34CCC4)cc2)CC1 [Cpd 51]
[out] 2.3

[in] Another: N#Cc1ncc(N2C(=O)C3(CCC3)N(c3ccc(OC4CCCNCC4)cc3)C2=S)cc1C(F)(F)F (stereo not shown) [Cpd 17]
[out] 0.3

[in] Another: N#Cc1ncc(N2C(=O)C3(CCC3)N(c3ccc4nn(CC5CCNCC5)cc4c3)C2=S)cc1C(F)(F)F [Cpd 126]
[out] 0.2

[in] Another: N#Cc1ncc(N2C(=O)C3(CCC3)N(c3ccc4[nH]ncc4c3)C2=S)cc1Cl [Cpd 155]
[out] 1.1

[in] Another: N#Cc1ncc(N2C(=O)C3(CCC3)N(c3ccc(OC4CC5(CNC5)C4)cc3)C2=S)cc1C(F)(F)F [Cpd 86]
[out] 0

[in] Another: N#Cc1ncc(N2C(=O)C3(CCC3)N(c3ccc4c(cnn4C4CCNCC4)c3)C2=S)cc1Cl [Cpd 182]
[out] 0

[in] Another: Cc1cc(N2C(=O)C3(CCC3)N(c3ccc(N4CCNC4=O)cc3)C2=S)cnc1C#N [Cpd 9]
[out] 0.1

[in] Another: CN1CCC(Oc2ccc(N3C(=S)N(c4cnc(C#N)c(C(F)(F)F)c4)C(=O)C34CCC4)cc2)CC12CCC2 (racemic) [Cpd 178]
[out] 0.3

[in] Another: COCCn1cc2cc(N3C(=S)N(c4cnc(C#N)c(C(F)(F)F)c4)C(=O)C34CCC4)ccc2n1 [Cpd 172]
[out] 0.2

[in] Another: N#Cc1ncc(N2C(=O)C3(CCC3)N(c3ccc4nn(CCO)cc4c3)C2=S)cc1Cl [Cpd 162]
[out] -0.1

[in] Another: N#Cc1ncc(N2C(=O)C3(CCC3)N(c3ccc(OCC4(N)COC4)cc3)C2=S)cc1C(F)(F)F [Cpd 145]
[out] 0.5

[in] Another: C=CCN1CCC(Oc2ccc(N3C(=S)N(c4cnc(C#N)c(C)c4)C(=O)C34CCC4)cn2)CC1 [Cpd 99]
[out] 0.5

[in] Another: Cc1cc(N2C(=O)C3(CCC3)N(c3ccc(OC4CCSCC4)nc3)C2=S)cnc1C#N [Cpd 21]
[out] -0.1

[in] Another: CC(C)(C)OC(=O)N1CCN(Cc2ccc(N3C(=S)N(c4cnc(C#N)c(C(F)(F)F)c4)C(=O)C34CCC4)cc2)CC1 [Cpd 47]
[out] 0.7

[in] Another: Cl.N#Cc1ncc(N2C(=O)C3(CCC3)N(c3cnc(OC4CCNCC4)nc3)C2=S)cc1C(F)(F)F [Cpd 141]
[out] -0.1

[in] Another: CCNC(=O)n1cc(-c2ccc(N3C(=S)N(c4cnc(C#N)c(C)c4)C(=O)C34CCC4)cc2)cn1 [Cpd 10]
[out] 0.5

* * *

System: rGABA-gated Cl− channel
Assay: GABA-Gated Cl Channel Antagonist Radioligand Binding Assay
Parameters: species or system rat
Details: 10 μM single point, [35S]-TBPS, cerebral cortex membrane homogenates
The class of a record is decided solely by its measured rGABA-gated Cl− channel % inh @10 μM; consult bin 0 (below 20%), bin 1 (20% to below 90%), bin 2 (90% or more)

[in] // return the class label for N#Cc1ncc(N2C(=O)C3(CCC3)N(c3ccc(O[C@H]4CCN[C@H](CO)C4)cc3)C2=S)cc1C(F)(F)F (racemic)
[out] bin 1

[in] Another: COCCn1cc2cc(N3C(=S)N(c4cnc(C#N)c(OC)c4)C(=O)C34CCC4)ccc2n1
[out] bin 1

[in] Another: CN1CC(Oc2ccc(N3C(=S)N(c4cnc(C#N)c(C(F)(F)F)c4)C(=O)C34CCC4)cc2)C1
[out] bin 1

[in] Another: N#Cc1ncc(N2C(=O)C3(CCC3)N(c3ccc(O[C@@H]4CCN[C@@H](C(F)(F)F)C4)cc3)C2=S)cc1C(F)(F)F (racemic)
[out] bin 1

[in] Another: CN1[C@@H]2CC[C@H]1C[C@H](Oc1ccc(N3C(=S)N(c4cnc(C#N)c(C(F)(F)F)c4)C(=O)C34CCC4)cc1)C2
[out] bin 0

[in] Another: CCOC(=O)N1CCN(Cc2ccc(N3C(=S)N(c4cnc(C#N)c(C(F)(F)F)c4)C(=O)C34CCC4)cc2)CC1
[out] bin 2

[in] Another: CN1CC[C@H](Oc2ccc(N3C(=S)N(c4cnc(C#N)c(C(F)(F)F)c4)C(=O)C34CCC4)cc2)[C@@H](F)C1 (racemic)
[out] bin 1

[in] Another: N#Cc1ncc(N2C(=O)C3(CCC3)N(c3ccc(O[C@@H]4CCN[C@H](C(F)(F)F)C4)cc3)C2=S)cc1C(F)(F)F (racemic)
[out] bin 1

[in] Another: Cc1cc(N2C(=O)C3(CCC3)N(c3ccc(OC4CCN(CC#N)CC4)nc3)C2=S)cnc1C#N
[out] bin 1

[in] Another: N#Cc1ncc(N2C(=O)C3(CCC3)N(c3ccc(OCCN4CC5(COC5)C4)cc3)C2=S)cc1C(F)(F)F
[out] bin 1

[in] Another: N#Cc1ncc(N2C(=O)C3(CCC3)N(c3ccc(OCC4CC(F)(F)CN4)cc3)C2=S)cc1C(F)(F)F (centres unmarked)
[out] bin 2

[in] Another: Cc1cc(N2C(=O)C3(CCC3)N(c3ccc(OC4CCN(CCF)CC4)nc3)C2=S)cnc1C#N
[out] bin 0

* * *

Biological target: wild-type Androgen Receptor (AR-wt) (Homo sapiens (Human), UniProt P10275)
Test: LNCaP-AR-wt AG reporter assay (agonist mode)
Type: cell-based
Conditions: maximum % stimulation (agonist response) over the tested concentration range; read-out: LNCaP-AR-wt AG MAX % Stim
outcomeMeasure: Emax (%)
Only the number, expressed in %, is required.

[in] Record request: Emax value, item COCCN1CCC(Oc2ccc(N3C(=S)N(c4cnc(C#N)c(C(F)(F)F)c4)C(=O)C34CCC4)cn2)CC1
[out] 0.4

[in] Another: CN1CCC[C@H](Oc2ccc(N3C(=S)N(c4cnc(C#N)c(C(F)(F)F)c4)C(=O)C34CCC4)cc2)C1
[out] 0.2

[in] Another: N#Cc1ncc(N2C(=O)C3(CCC3)N(c3ccc(OC4C5CCC4CNC5)cc3)C2=S)cc1C(F)(F)F (centres unmarked)
[out] -0.1

[in] Another: N#Cc1ncc(N2C(=O)C3(CCC3)N(c3ccc4c(c3)CCNC4)C2=S)cc1C(F)(F)F
[out] 0.7

[in] Another: CNC(=O)N1CCN(Cc2ccc(N3C(=S)N(c4cnc(C#N)c(C(F)(F)F)c4)C(=O)C34CCC4)cc2)CC1
[out] 0.4

[in] Another: Cc1cc(N2C(=O)C3(CCC3)N(c3ccc(OC4CCN(CCO)CC4)nc3)C2=S)cnc1C#N
[out] 0.1

[in] Another: CN1CC(CCOc2ccc(N3C(=S)N(c4cnc(C#N)c(C(F)(F)F)c4)C(=O)C34CCC4)cc2)C1
[out] -0.2

[in] Another: N#Cc1ncc(N2C(=O)C3(CCC3)N(c3ccc(OC4CCN(CCO)CC4)nc3)C2=S)cc1C(F)(F)F
[out] 0

[in] Another: CN1CC(COc2ccc(N3C(=S)N(c4cnc(C#N)c(C(F)(F)F)c4)C(=O)C34CCC4)cc2)C1
[out] 0

[in] Another: COCCN1CCC(Oc2ccc(N3C(=S)N(c4cnc(C#N)c(C)c4)C(=O)C34CCC4)cn2)CC1
[out] 0.3

[in] Another: CCOC(=O)N1CCN(c2ccc(N3C(=S)N(c4cnc(C#N)c(C(F)(F)F)c4)C(=O)C34CCC4)cc2)CC1
[out] 0

[in] Another: CCOC(=O)N1CCN(Cc2ccc(N3C(=S)N(c4cnc(C#N)c(C(F)(F)F)c4)C(=O)C34CCC4)cc2)CC1
[out] 0.6

[in] Another: COc1ccc(N2C(=S)N(c3cnc(C#N)c(C(F)(F)F)c3)C(=O)C23CCC3)cn1
[out] -0.1

[in] Another: COc1cc(N2C(=S)N(c3cnc(C#N)c(C)c3)C(=O)C23CCC3)ccc1-c1ccc(C)o1
[out] 1.2

[in] Another: CN1CCC12CC(Oc1ccc(N3C(=S)N(c4cnc(C#N)c(C(F)(F)F)c4)C(=O)C34CCC4)cc1)C2 (centres unmarked)
[out] 0.2

[in] Another: CN1CC[C@@H](Oc2ccc(N3C(=S)N(c4cnc(C#N)c(C(F)(F)F)c4)C(=O)C34CCC4)cc2)C1
[out] 0.5

[in] Another: N#Cc1ncc(N2C(=O)C3(CCC3)N(c3ccc(OCC4CNCCO4)cc3)C2=S)cc1C(F)(F)F (centres unmarked)
[out] 0.2

[in] Another: N#Cc1ncc(N2C(=O)C3(CCC3)N(c3ccc(OC4CCN(CC(O)CN)CC4)cc3)C2=S)cc1C(F)(F)F (centres unmarked)
[out] -0.2

[in] Another: N#Cc1ncc(N2C(=O)C3(CCC3)N(c3ccc(OC4CC5CCC(N5)C4F)cc3)C2=S)cc1C(F)(F)F (centres unmarked)
[out] 0.5

[in] Another: CN1CCc2cc(N3C(=S)N(c4cnc(C#N)c(C(F)(F)F)c4)C(=O)C34CCC4)ccc2C1
[out] 0.6

[in] Another: COCCn1ncc2cc(N3C(=S)N(c4cnc(C#N)c(OC)c4)C(=O)C34CCC4)ccc21
[out] 0.4

[in] Another: Cc1cc(N2C(=O)C3(CCC3)N(c3ccc(OCCCN(C)C)nc3)C2=S)cnc1C#N
[out] 0

[in] Another: N#Cc1ncc(N2C(=O)C3(CCC3)N(c3ccc(OC4CCNC5(CCC5)C4)cc3)C2=S)cc1C(F)(F)F (racemic)
[out] 0
